Entry source: PubChem BioAssay (NCI)

- Test system: HCT-15 colon
- test-description: NCI tumour cell line growth inhibition, 48 h
Provide the recorded GI50 for the entries that follow.

compound	result
COc1ccc(-n2c3c(c4c(CN5CCOCC5)c(O)ccc42)CCc2ccccc2C3=O)cc1	> 100000 nM
NC1=NC(c2ccc(Cl)cc2)C2=C(N1)/C(=C/c1ccc(Cl)cc1)CCC2 (centres undefined)	9130 nM
O=C(c1ccco1)c1c(C(F)(F)F)n([O-])c2ccccc2[n+]1=O	785 nM

For the next question, use this compound.
// query Item under review: CCOC(=O)/C=C/C(C(=O)/C=C/c1ccc(O)c(OC)c1)=C(O)\C=C\c1ccc(O)c(OC)c1 . Reported GI50?
// result 2270 nM
